Each recorded value in this set is attributed to a melting point compilation (Tetko et al.; mined from patent text by program, amines drawn as free bases though some values may be those of a salt).

Reported melting point by item:
Lab book: enter the figure in °C, no units written.

[[record]]
compound = "COC1C(O)C(COC(c2ccccc2)(c2ccccc2)c2ccccc2)OC(Oc2ccc([N+](=O)[O-])cc2)C1O (centres undefined)"
endpoint_name = "melting point"
obs_value = 104


Consider the additional compound presented here.
[in] Give its melting point value. Item: O=c1ccc(O)nn1-c1ccc(OC(F)(F)F)cc1
[out] 243

---

endpoint name: melting point

Record excerpt, results attached:
[[record]]
molecule = "OC1CSc2nc(SCc3ccccc3)nn21 (configuration not stated)"
obs_value = "136 to 138 °C"

[[record]]
molecule = "Cc1cc(=O)oc2c1c(C)nn2CCO"
obs_value = "152 to 153 °C"

[[record]]
molecule = "CC(C)(C)COc1ccc(NC(=O)c2cnn(-c3ccc(F)cc3)c2)cc1C#N"
obs_value = "196 to 197 °C"


[in] Give its melting point value. Item: CN(Cc1ccc(C=CC(=O)O)cc1)S(=O)(=O)c1ccccc1
[out] 112 °C

[in] How about this molecule: CCCN1CCC(c2ccccc2)=C(C(=O)NOCc2ccccc2)C1
[out] 143 to 145 °C

[in] How about this molecule: OCC1OC(n2cnc3c(NC4CCN(Cc5ccccc5)CC4)ncnc32)C(O)C1O (configuration not stated)
[out] 176 to 182 °C

[in] How about this molecule: CCOCc1cccc2cc(C(N)=O)oc12
[out] 133 to 134 °C

---

endpoint name: melting point

Record excerpt, results attached:
[[record]]
compound = "Cc1cn(S(C)(=O)=O)c2c1C(=O)CC(c1ccccc1F)C2 (stereo not given)"
obs_value = "130 to 134 °C"

[[record]]
compound = "CC(C)(C)OC(=O)NC(Cc1cc(C(=O)c2cc(C(F)(F)F)cc(C(F)(F)F)c2)ccc1N)C(=O)OC(C)(C)C (stereo not given)"
obs_value = "134 to 135 °C"

[[record]]
compound = "CCCOc1ccc(NC2=C(C(=O)OCC)CCC2)cc1C1=NC(=O)C2=NN=NC2=N1"
obs_value = "164 to 165 °C"

[[record]]
compound = "CS(=O)(=O)c1cccnc1Oc1ccc(Cl)c(Cl)c1"
obs_value = "95 to 96 °C"

[[record]]
compound = "COCC12CCC(O)CC1CCC1C3CCC(=O)C3(C)CCC12 (stereo not given)"
obs_value = "172 to 174 °C"


[in] Give its melting point value. Item: O=S1c2ccccc2C(CCCl)(CCCl)c2ccccc21
[out] 126 to 127 °C

[in] How about this compound: COc1ccc2c(C3NCCc4ccccc43)c(O)ccc2c1 (stereo not given)
[out] 148 to 151 °C

[in] How about this compound: Fc1ccc2sc(Cl)nc2c1
[out] 69 °C

[in] How about this compound: COc1ccc(Sc2nc(C)n(Cc3cc4c(cc3Cl)OCO4)c2C(=O)O)cc1
[out] 200 to 210 °C

[in] How about this compound: CC12CCC3C(CCC4CC(O[Si](c5ccccc5)(c5ccccc5)C(C)(C)C)CCC43C)C1CCC2C=C(Br)Br (stereo not given)
[out] 69 to 71 °C

---

Reported melting point by item:

Record excerpt, results attached:
[[record]]
molecule = "Cc1ccc(N)cc1Nc1ncc(-c2cccnc2)o1"
endpoint_name = "melting point"
obs_value = "166 °C"

[[record]]
molecule = "COC(=O)CC1CCc2cc(OC)ccc2C1=O (stereo not drawn)"
endpoint_name = "melting point"
obs_value = "110 to 112 °C"


Consider the additional molecule presented here.
[in] Give its melting point value. Item: O=c1n(CC(O)(Cn2cncn2)c2ccc(F)cc2F)cnn1-c1ccc(OC(F)(F)F)cc1 (racemic)
[out] 128 to 130 °C

---

Reported melting point by item:

[[record]]
compound = "CC(C)[C@H](NC(=O)N(C)Cc1csc(NC(=O)OC(C)(C)C)n1)C(=O)N[C@@H](Cc1ccccc1)[C@@H](O)C[C@H](Cc1ccccc1)NC(=O)OCc1cccnc1"
endpoint_name = "melting point"
obs_value = "95 to 98 °C"

[[record]]
compound = "CC(C)Oc1ccc(C(=O)N2CCNC2=Nc2c(Cl)cccc2Cl)cc1"
endpoint_name = "melting point"
obs_value = "146 to 148 °C"

[[record]]
compound = "COc1cc(Nc2c(C#N)cnc3cc(/C=C/CCCN4CCOCC4)c(OC)cc23)c(Cl)cc1Cl"
endpoint_name = "melting point"
obs_value = "110 to 112 °C"


[in] Give its melting point value. Item: CC(=O)Nc1cc2c(cc1C#N)C(Nc1ccc(C(=O)OC(C)(C)C)cc1)CC2 (configuration not stated)
[out] 173 to 174 °C

[in] How about this compound: CC(C)(C)C(=O)OCOc1ccc(C=O)cc1OC(=O)C(C)(C)C
[out] 58 to 60 °C

[in] How about this compound: CC(C)(C)C#CC(O)C#CC(C)(C)C
[out] 67 to 70 °C

[in] How about this compound: CSc1c(C(=O)O)ccc(Cl)c1F
[out] 150 °C

[in] How about this compound: CC(C)Cc1ccc2c(c1)C(CO)c1cc(CC(C)C)ccc1-2
[out] 105 °C

[in] How about this compound: CC(C)(C)C1=C(O)C(=O)c2ccccc2C1=O
[out] 89 °C

[in] How about this compound: Cn1nc(COc2ccc(C=O)cc2)c2ccccc2c1=O
[out] 168 to 170 °C

[in] How about this compound: CN1CC(=O)c2ccc3ccccc3c2S1(=O)=O
[out] 192 to 193 °C

---

Reported melting point by item:

[in] Give its melting point value. Item: C#CCOC(=O)C(C#N)=C(SC)SC
[out] 77 to 79 °C

[in] How about this compound: CC(C)=CCOc1c(I)cc(C(C)O)nc1Cl (stereo unspecified)
[out] 80 to 81 °C

[in] How about this compound: COc1ccc(CNc2nc(-c3ccccc3)c(-c3ccc(=O)n(C(C)C)n3)nc2C(=O)O)cc1
[out] 216 to 217 °C

[in] How about this compound: Cc1ccccc1N1CCN(CCn2c(=N)sc3cc(OC(F)(F)F)ccc32)CC1
[out] 135 °C

[in] How about this compound: CSCC[C@H](NC(=O)[C@@H]1CS[C@H](c2ccccc2O)N1C(=O)CCSC(C)=O)C(=O)O
[out] 59 to 64 °C

[in] How about this compound: Cc1c(C(N)=O)nc2c(=O)[nH]c3cc(C(F)(F)F)ccc3n12
[out] > 250 °C

---

Reported melting point by item:

[[record]]
molecule = "OCc1nc2n(n1)-c1ccccc1N(c1cccc(C(F)(F)F)c1)C2"
obs_value = "168 to 171 °C"

[[record]]
molecule = "CCCNc1ccc2oc([N+](=O)[O-])c(-c3ccccc3)c2c1"
obs_value = "158 to 160 °C"

[[record]]
molecule = "COCCC1CCCCCc2c1oc(=O)c(C(c1ccccc1)C1CC1)c2O (centres undefined)"
obs_value = "78 to 80 °C"


[in] Give its melting point value. Item: Clc1ccc2c(c1)CCn1ccnc1C2=C1CCNCC1
[out] 197 °C

---

Reported melting point by item:

Record excerpt, results attached:
[[record]]
compound = "CC(C)OC(=O)N1CCC(c2nc3cc(-c4ccc(C(=O)O)cn4)ccc3o2)CC1"
endpoint_name = "melting point"
obs_value = "239 to 242 °C"

[[record]]
compound = "COc1ccc(-c2cc(-c3ccccc3)[nH]c2C(=O)NCc2ccc(C(=O)NO)cc2)cc1OC"
endpoint_name = "melting point"
obs_value = "134 to 136 °C"

[[record]]
compound = "Cc1cc(C2C(=O)Oc3c2cc(C(C)(C)C)cc3C(C)(C)C)cc(C)c1OC(=O)C(C)(C)C (stereo not drawn)"
endpoint_name = "melting point"
obs_value = "140 to 142 °C"

[[record]]
compound = "CCN(CC)CCN1CCN(Cc2ccc(O)cc2)C(c2ccccc2)C1 (stereo not drawn)"
endpoint_name = "melting point"
obs_value = "108 to 112 °C"


[in] Give its melting point value. Item: Nc1ncnc2c1c(-c1ccccc1)cn2-c1cccc(C(=O)NCCO)c1
[out] 194 to 198 °C

[in] How about this compound: O=C1Nc2ccc(C(F)(C(F)(F)F)C(F)(F)F)cc2CN1NCc1cccnc1
[out] 159 to 161 °C

---

endpoint name: melting point

Record excerpt, results attached:
[[record]]
molecule = "CCOC(=O)c1cn2c3c(cc(N(C)C)cc3c1=O)CCC2C (configuration not stated)"
obs_value = "219 to 222 °C"

[[record]]
molecule = "COCOc1c(OC)cc(/C=C/C(=O)/C=C/c2cc(OC)c(OCOC)c(OC)c2)cc1OC"
obs_value = "146 to 148 °C"

[[record]]
molecule = "CCS(=O)(=O)N[C@H](C(=O)NCc1ccc(OCc2ccccc2)c(OC)c1)C(C)C"
obs_value = "141 to 152 °C"

[[record]]
molecule = "c1ccc(N2CC3CCC(C2)O3)cc1"
obs_value = "84 to 85 °C"

[[record]]
molecule = "CCc1c(C)c2c(c(OS(=O)(=O)c3ccc(C)cc3)c1C/C=C(\\C)CCC(=O)OC)C(=O)OC2"
obs_value = "101 to 103 °C"


[in] Give its melting point value. Item: CCCC12CCC3=C(CCc4cc(OC)ccc43)C1CCC2=O (configuration not stated)
[out] 111 to 113 °C

[in] How about this molecule: CCCOCc1nc(C(C)(C)O)c(C(=O)O)n1Cc1ccc(-c2ccccc2-c2nnn[nH]2)cc1
[out] 166 to 168 °C
